Target: GLP-1 Receptor (Homo sapiens, UniProt P43220)
Sequence (P43220 24-463): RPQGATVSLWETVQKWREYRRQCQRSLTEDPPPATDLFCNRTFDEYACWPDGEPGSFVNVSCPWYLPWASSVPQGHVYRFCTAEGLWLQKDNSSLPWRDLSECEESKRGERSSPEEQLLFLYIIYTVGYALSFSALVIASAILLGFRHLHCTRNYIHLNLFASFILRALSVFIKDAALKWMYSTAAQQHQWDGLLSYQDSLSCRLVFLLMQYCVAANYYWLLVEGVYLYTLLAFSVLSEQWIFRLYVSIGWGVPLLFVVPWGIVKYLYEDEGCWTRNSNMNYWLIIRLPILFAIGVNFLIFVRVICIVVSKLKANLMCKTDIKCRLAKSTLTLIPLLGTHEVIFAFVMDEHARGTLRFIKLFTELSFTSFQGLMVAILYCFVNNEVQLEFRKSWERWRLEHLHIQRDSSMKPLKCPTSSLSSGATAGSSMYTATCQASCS
Test: GLP-1R agonist cAMP stimulation assay (HEK293/GLP1R/CRE-LUC cells, HTRF cAMP dynamic 2 kit)
Settings: HEK293/CRE-Luc cell line stably expressing the GLP-1 Receptor; 30 min incubation at 37° C.
Reported EC50 values for a set of compounds

Compound: O=c1[nH]c(-c2cc3nc(CN4CCc5cc(C(F)(F)F)c(NCc6c(F)cc(Cl)cc6F)nc5C4)n(C[C@@H]4CCO4)c3cn2)no1
EC50: < 1 nM
//
Compound: O=c1[nH]c(-c2ccc3c(nc(CN4CCc5cc(C(F)(F)F)c(OCc6c(F)cc(Cl)cc6F)nc5C4)n3C[C@@H]3CCO3)c2F)no1
EC50: 1 to 300 nM
//
Compound: N#Cc1nnc(-c2cc3nc(CN4CCc5cc(C(F)(F)F)c(OCc6ccc(Cl)cc6F)nc5C4)n(C[C@@H]4CCO4)c3nn2)[nH]1
EC50: < 1 nM
//
Compound: Cc1cc2c(nc1OCc1c(F)cc(Cl)cc1F)CN(Cc1nc3cc(-c4nnc(C(F)(F)F)[nH]4)ncc3n1C[C@@H]1CCO1)CC2
EC50: < 1 nM
//
Compound: O=c1[nH]c(-c2cc3nc(CN4CCc5cc(C(F)(F)F)c(OCc6ccc(Cl)cc6F)nc5C4)n(C[C@@H]4CCO4)c3cc2F)no1
EC50: 1 to 300 nM
//
Compound: O=C(O)c1ccc2c(c1)nc(CN1CCc3cc(C(F)(F)F)c(OCc4ccc(Cl)cc4F)nc3C1)n2C[C@@H]1CCO1
EC50: < 1 nM
//
Compound: COC(C)Cn1c(CN2CCc3cc(C(F)(F)F)c(OCc4ccc(Cl)cc4F)nc3C2)nc2cc(-c3nnc(C(F)(F)F)[nH]3)ncc21 (stereo in doubt)
EC50: 1 to 300 nM
//
Compound: CS(=O)(=O)c1nnc(-c2ccc3c(c2)nc(CN2CCc4cc(C(F)(F)F)c(OCc5ccc(Cl)cc5F)nc4C2)n3C[C@@H]2CCO2)[nH]1
EC50: 1 to 300 nM
//
Compound: Cc1cc2c(nc1OCc1c(F)cc(Cl)cc1F)CN(Cc1nc3cc(-c4nnc(C(F)F)[nH]4)ncc3n1C[C@@H]1CCO1)CC2
EC50: < 1 nM
//
Compound: O=c1[nH]nc(-c2cc3nc(CN4CCc5cc(C(F)(F)F)c(OCc6ccc(Cl)cc6F)nc5C4)n(C[C@@H]4CCO4)c3cn2)o1
EC50: < 1 nM
//
Compound: Fc1cc(Cl)ccc1COc1nc2c(cc1C(F)(F)F)CCN(Cc1nc3cc(-c4nnc(C(F)(F)F)[nH]4)ncc3n1C[C@@H]1CCOC1)C2
EC50: 1 to 300 nM
//
Compound: Cc1ccc(COc2nc3c(cc2C(F)(F)F)CCN(Cc2nc4cc(-c5noc(=O)[nH]5)ncc4n2C[C@@H]2CCO2)C3)c(Cl)c1
EC50: < 1 nM
//
Compound: Fc1cc(Cl)ccc1COc1nc2c(cc1C(F)F)CCN(Cc1nc3cc(-c4nnc(C(F)(F)F)[nH]4)ncc3n1C[C@@H]1CCO1)C2
EC50: < 1 nM
//
Compound: O=c1[nH]nc(-c2cc3nc(CN4CCc5cc(C(F)(F)F)c(OCc6ccc(Cl)cc6F)nc5C4)n(C[C@@H]4CCO4)c3cn2)[nH]1
EC50: < 1 nM
//
Compound: Cc1nnc(-c2cnc3c(c2)nc(CN2CCc4cc(C(F)(F)F)c(OCc5ccc(Cl)cc5F)nc4C2)n3C[C@@H]2CCO2)[nH]1
EC50: 1 to 300 nM
//
Compound: FC(F)(F)c1nnc(-c2cc3nc(CN4CCc5cc(C(F)(F)F)c(OCc6ccc(Cl)cn6)nc5C4)n(C[C@@H]4CCO4)c3cn2)[nH]1
EC50: < 1 nM
//
Compound: Cc1cc2c(nc1NCc1c(F)cc(Cl)cc1F)CN(Cc1nc3cc(-c4noc(=O)[nH]4)ncc3n1C[C@@H]1CCO1)CC2
EC50: < 1 nM
//
Compound: N#CC1(Cc2cc(-c3nnc(C(F)(F)F)[nH]3)cnc2CN2CCc3cc(C(F)(F)F)c(OCc4ccc(Cl)cc4F)nc3C2)CC1
EC50: 1 to 300 nM
//
Compound: Fc1cc(Cl)ccc1COc1nc2c(cc1C(F)(F)F)CCN(Cc1nc3cc(-c4nnn[nH]4)cnc3n1C[C@@H]1CCO1)C2
EC50: < 1 nM
//
Compound: CNC(=O)c1nnc(-c2cc3nc(CN4CCc5cc(C(F)(F)F)c(OCc6ccc(Cl)cc6F)nc5C4)n(C[C@@H]4CCO4)c3cn2)[nH]1
EC50: < 1 nM
//
Compound: Cc1cc(-c2nnc(C(F)(F)F)[nH]2)nnc1CN1CCc2cc(C(F)(F)F)c(OCc3ccc(Cl)cc3F)nc2C1
EC50: > 300 nM
//
Compound: NC(=O)c1nnc(-c2cc3nc(CN4CCc5cc(C(F)(F)F)c(OCc6ccc(Cl)cc6F)nc5C4)n(C[C@@H]4CCO4)c3cn2)[nH]1
EC50: < 1 nM
//
Compound: Fc1cc(Cl)ccc1COc1nc2c(cc1C(F)(F)F)CCN(Cc1nc3cc(-c4nnc(C(F)(F)F)[nH]4)ncc3n1C[C@H]1CCCO1)C2
EC50: 1 to 300 nM
//
Compound: Cc1cc2c(nc1OCc1c(F)cc(Cl)cc1F)CN(Cc1nc3nc(-c4noc(=O)[nH]4)ccc3n1C[C@@H]1CCO1)CC2
EC50: < 1 nM
